Origin of values: patent US7880007B2

TESTED ON: M2 muscarinic receptor (Homo sapiens, UniProt P08172)
Construct: expressed in transfected cells; host or cells: CHO (M2-CHO)
Sequence (P08172 whole entry): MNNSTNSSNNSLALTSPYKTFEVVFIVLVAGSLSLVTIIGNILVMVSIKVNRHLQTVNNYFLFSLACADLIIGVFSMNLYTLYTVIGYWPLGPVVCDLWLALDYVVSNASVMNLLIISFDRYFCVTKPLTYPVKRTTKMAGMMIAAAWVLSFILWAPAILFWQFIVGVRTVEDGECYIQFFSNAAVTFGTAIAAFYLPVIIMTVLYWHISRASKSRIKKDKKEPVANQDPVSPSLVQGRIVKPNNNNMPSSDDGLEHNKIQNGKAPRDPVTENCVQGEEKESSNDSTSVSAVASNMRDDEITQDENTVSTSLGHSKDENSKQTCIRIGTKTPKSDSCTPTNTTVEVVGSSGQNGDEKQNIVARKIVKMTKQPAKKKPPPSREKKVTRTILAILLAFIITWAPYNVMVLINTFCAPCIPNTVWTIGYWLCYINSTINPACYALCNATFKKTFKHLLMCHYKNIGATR
ASSAY PROTOCOL: Functional mobilization of intracellular calcium (FLIPR), M2-CHO cells
Format: cell-based
MEASUREMENT SETUP: 100% efficacy = maximum response obtained with the Carbachol control
# Emax annotations
MEASUREMENT NAME: Emax

MOLECULE	TESTED ON	MEASUREMENT NAME	MEAS VALUE
CCOC(=O)N1CCC(N2CCC(c3cc(-c4ccc(S(C)(=O)=O)cc4)ccc3OC)CC2)CC1	M2 muscarinic receptor (Homo sapiens, UniProt P08172)	Emax	25 to 100%
CCCC1CCC(N2CCC(F)(c3cc(F)ccc3OC)CC2)CC1 (centres unmarked)	M2 muscarinic receptor (Homo sapiens, UniProt P08172)	Emax	25 to 100%
CNC(=O)c1ccc(-c2ccc(OC)c(C3CCN(C4CC5CCC(C5)C4)CC3)c2)cc1Cl (centres unmarked)	M2 muscarinic receptor (Homo sapiens, UniProt P08172)	Emax	< 25%
COc1ccc(Cl)cc1C1(O)CCN(C2CCOCC2)CC1	M2 muscarinic receptor (Homo sapiens, UniProt P08172)	Emax	< 25%
CCOC(=O)N1C2CCC1CC(N1CCC(F)(c3cc(F)ccc3OC)CC1)C2 (centres unmarked)	M2 muscarinic receptor (Homo sapiens, UniProt P08172)	Emax	< 25%
FC(F)(F)c1ccccc1C1CCN(C2CC3CCC(C3)C2)CC1 (centres unmarked)	M2 muscarinic receptor (Homo sapiens, UniProt P08172)	Emax	< 25%
COc1ccc(NC(C)=O)cc1C1CCN(CC2C[C@H]3CC[C@H]2C3)CC1 (some centres unmarked)	M2 muscarinic receptor (Homo sapiens, UniProt P08172)	Emax	< 25%
CCOC(=O)N1CCC(CN2CCC(F)(c3cc(F)ccc3OC)CC2)CC1	M2 muscarinic receptor (Homo sapiens, UniProt P08172)	Emax	< 25%
